molecular target: human Constitutive Androstane Receptor (CAR), NR1I3 (gene 9970); test: NVS_NR_hCAR_Antagonist: NovaScreen (NVS) Nuclear Receptor Binding Assay for human Constitutive Androstane Receptor Antagonism (CAR) (AID 2283344)
Inconclusive results are not listed. Activity calls are given as the source filed them. Rule for the calls: active = hit-call score of the fitted dose curve at least 0.9, where 1 is the maximum; inconclusive = response in the unintended direction; inactive = score below 0.9.
assay-metric: AC50

> print(dat)
                                   compound          observed
1              CCc1cccc(CC)c1N(COC)C(=O)CCl  9.33 µM (active)
2  CCC(CC)Nc1c([N+](=O)[O-])cc(C)c(C)c1[N+](=O)[O-]          inactive
3  CCOP(=O)(NC(C)C)Oc1ccc(SC)c(C)c1 (configuration not stated)  16.8 µM (active)
4                        CCCSP(=O)(OCC)SCCC          inactive
5         CC(C)N(C(=O)SCC(Cl)=C(Cl)Cl)C(C)C          inactive

Qu. Under human Constitutive Androstane Receptor (CAR), NR1I3 (gene 9970): AC50 value of CSC1=N[C@@](C)(c2ccccc2)C(=O)N1Nc1ccccc1 ?
Ans. 3.63 µM (active)

Qu. Cool, now CSc1nnc(C(C)(C)C)c(=O)n1N
Ans. inactive

---

experiment: ATG_TGFb_CIS: Attagene CIS-FACTORIAL HepG2 Assay for human Transforming Growth Factor (TGF) (AID 2282967); conditions: HepG2 Attagene CIS TGFb reporter, mRNA transcription; actives raise or lower the signal
Calls of active or inactive are those of the source. How the source made its calls: active means hit-call score of the fitted dose curve at least 0.9, where 1 is the maximum; inactive means score below 0.9.
Write down the outcome that applies. Available outcomes: active, inactive

Example cases with answers are listed next.
> print(dat)
                                   molecule  group.label
1  CCCSP(=O)(OCC)Oc1ccc(Br)cc1Cl (stereo unspecified)     inactive
2               CNC(=O)Oc1cccc2c1OC(C)(C)O2     inactive
3          CCOP(=S)(OCC)Oc1cc(C)nc(C(C)C)n1     inactive

Qu. Which outcome was entered for the molecule Cc1ccn2nc(S(=O)(=O)Nc3c(F)cccc3F)nc2n1 in this test?
Ans. inactive

Qu. Cool, now Nc1c(Cl)cc([N+](=O)[O-])cc1Cl
Ans. active

Qu. Cool, now CCOC(=O)CC(SP(=O)(OC)OC)C(=O)OCC (stereo unspecified)
Ans. inactive

Qu. Cool, now CCOP(=O)(OCC)Oc1cc(C)nc(C(C)C)n1
Ans. inactive

Qu. Cool, now O=C(O)c1cc(Oc2ccc(C(F)(F)F)cc2Cl)ccc1[N+](=O)[O-]
Ans. inactive

Qu. Cool, now CN1COCN(Cc2cnc(Cl)s2)C1=N[N+](=O)[O-]
Ans. inactive

Qu. Cool, now CCOP(=S)(Oc1cnc(C(C)(C)C)nc1)OC(C)C (stereo unspecified)
Ans. active

Qu. Cool, now CC(C1CC1)C(O)(Cn1cncn1)c1ccc(Cl)cc1 (stereo unspecified)
Ans. inactive

Qu. Cool, now CC(Oc1cccc(Cl)c1)C(=O)O (stereo unspecified)
Ans. inactive

Qu. Cool, now CCc1cnc(C2=NC(C)(C(C)C)C(=O)N2)c(C(=O)O)c1 (stereo unspecified)
Ans. inactive

Qu. Cool, now C=C(C)[C@H]1Cc2c(ccc3c2O[C@@H]2COc4cc(OC)c(OC)cc4[C@@H]2C3=O)O1
Ans. inactive

Qu. Cool, now CCCCOC(=O)[C@@H](C)Oc1ccc(Oc2ccc(C#N)cc2F)cc1
Ans. inactive

Qu. Cool, now CNc1cnn(-c2cccc(C(F)(F)F)c2)c(=O)c1Cl
Ans. inactive

Qu. Cool, now CCOP(=S)(OCC)Oc1ccc2c(C)c(Cl)c(=O)oc2c1
Ans. inactive

Qu. Cool, now Cc1cc(C2CC2)nc(Nc2ccccc2)n1
Ans. active

Qu. Cool, now CON=C(C(=O)OC)c1ccccc1CON=C(C)c1cccc(C(F)(F)F)c1
Ans. inactive

Qu. Cool, now COP(=O)(NC(C)=O)SC (stereo unspecified)
Ans. inactive

Qu. Cool, now CSC1=N[C@@](C)(c2ccccc2)C(=O)N1Nc1ccccc1
Ans. inactive

---

assay: APR_HepG2_MitoMembPot_1hr: Apredica 1-hour HepG2 Assay for Mitochondrial Membrane Potential (AID 2282675); settings: imaging, actives raise or lower the signal
The source made the active and inactive calls. How the source made its calls: active means hit-call score of the fitted dose curve at least 0.9, where 1 is the maximum; inactive means score below 0.9.
Write down the outcome that applies. Available outcomes: label 1 for active, label 0 for inactive

Qu. Which outcome was entered for the molecule CC(COc1ccc(Oc2ccccc2)cc1)Oc1ccccn1 (stereo not drawn) in this test?
Ans. label 1

Qu. Cool, now N#CSCSC#N
Ans. label 0

Qu. Cool, now CC(=NC#N)N(C)Cc1ccc(Cl)nc1
Ans. label 0

Qu. Cool, now CCOP(=S)(OCC)OC(Cl)C(Cl)(Cl)Cl (stereo not drawn)
Ans. label 0

Qu. Cool, now Nc1c(Cl)cc([N+](=O)[O-])cc1Cl
Ans. label 0

Qu. Cool, now CC(Oc1cccc(Cl)c1)C(=O)O (stereo not drawn)
Ans. label 0

Qu. Cool, now CCOP(=S)(OCC)SCCSCC
Ans. label 0

Qu. Cool, now CN(C)C(=O)Nc1cccc(C(F)(F)F)c1
Ans. label 0

Qu. Cool, now C[Si](Cn1cncn1)(c1ccc(F)cc1)c1ccc(F)cc1
Ans. label 0

Qu. Cool, now C#CCC1=C(C)C(OC(=O)C2C(C=C(C)C)C2(C)C)CC1=O (stereo not drawn)
Ans. label 0

Qu. Cool, now CCCCN(CC)c1c([N+](=O)[O-])cc(C(F)(F)F)cc1[N+](=O)[O-]
Ans. label 0

Qu. Cool, now CCc1cccc(CC)c1N(COC)C(=O)CCl
Ans. label 0

Qu. Cool, now CCCSP(=O)(OCC)SCCC
Ans. label 0

---

experiment: APR_HepG2_CellLoss_72hr: Apredica 72-hour HepG2 Assay for Cell Loss (AID 2282915); details: high-content imaging
Activity calls are given as the source filed them. The calls were made as follows: active = hit-call score of the fitted dose curve at least 0.9, where 1 is the maximum; inactive = score below 0.9.
Write down the outcome that applies. Available outcomes: active, inactive

Qu. Which outcome was entered for the molecule CC(Oc1cccc(Cl)c1)C(=O)O (stereo not drawn) in this test?
Ans. inactive

Qu. Cool, now CCc1cccc(CC)c1N(COC)C(=O)CCl
Ans. active

---

assay: ATG_M_32_CIS: Attagene CIS-FACTORIAL HepG2 Assay for M32 Transcription Factor (Internal Marker) (AID 2282949); settings: HepG2 Attagene cis-factorial M32 reporter, mRNA; actives raise or lower the signal;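 note: background control marker of the multiplexed CIS panel rather than a real target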
The source made the active and inactive calls. How the source made its calls: active means hit-call score of the fitted dose curve at least 0.9, where 1 is the maximum; inactive means score below 0.9.
Write down the outcome that applies. Available outcomes: true (1) (active), false (0) (inactive)

Example cases with answers are listed next.
> print(dat)
                                   molecule  group.label
1  CCC(CC)Nc1c([N+](=O)[O-])cc(C)c(C)c1[N+](=O)[O-]    false (0)
2  CCCCOC(=O)[C@@H](C)Oc1ccc(Oc2ccc(C#N)cc2F)cc1    false (0)
3  CCOP(=S)(OCC)OC(Cl)C(Cl)(Cl)Cl (configuration not stated)    false (0)
4                      O=c1ccc(=O)[nH][nH]1    false (0)
5             CC1=NNC(=O)N(/N=C/c2cccnc2)C1    false (0)

Now, please, on to the next molecule.
Qu. Which outcome was entered for the molecule COc1ccc(C(=CC(=O)N2CCOCC2)c2ccc(Cl)cc2)cc1OC in this test?
Ans. false (0)

---

read-out: Cytochrome P450 2B6 (Homo sapiens) (UniProt P20813); assay: CLD_CYP2B6_6hr: CellzDirect (CLD) Gene Expression Assay for xenobiotic metabolism (CYP2B6) at 6 hours (AID 2283677);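 note: actives raise CYP2B6 transcript above DMSO baseline so AC50 marks an inducer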
Inconclusive results are not listed. Calls of active or inactive are those of the source. How the source made its calls: active means hit-call score of the fitted dose curve at least 0.9, where 1 is the maximum; inconclusive means response in the unintended direction; inactive means score below 0.9.
Write down the outcome that applies. Available outcomes: active, inactive

> print(dat)
                                   compound  group.label
1          C#CC(C)(C)NC(=O)c1cc(Cl)cc(Cl)c1       active
2  CON=C(C(=O)OC)c1ccccc1CON=C(C)c1cccc(C(F)(F)F)c1       active
3                       CCOP(=S)(OCC)SCCSCC       active
4  CCOP(=S)(Oc1cnc(C(C)(C)C)nc1)OC(C)C (stereo unspecified)       active
5  O=C(O)c1cc(Oc2ccc(C(F)(F)F)cc2Cl)ccc1[N+](=O)[O-]     inactive

Now, please, on to the next compound.
Qu. Which outcome was entered for the compound CC(COc1ccc(Oc2ccccc2)cc1)Oc1ccccn1 (stereo unspecified) in this test?
Ans. active

---

test: Tanguay_ZF_120hpf_EYE_legacy: (Legacy) Oregon State University Tanguay Lab 120 Hour Post-fertilization zebrafish Assay for Eye Malformation (AID 2283636);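 note: binary presence or absence of eye malformation scored by brightfield in 120 hpf larvae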
Results filed as inconclusive are left out. Calls of active or inactive are those of the source. How the source made its calls: active means hit-call score of the fitted dose curve at least 0.9, where 1 is the maximum; inconclusive means response in the unintended direction; inactive means score below 0.9.
Write down the outcome that applies. Available outcomes: active, inactive

compound	group-label
COc1cc(OC)nc(Sc2cccc(Cl)c2C(=O)O)n1	inactive

Qu. Which outcome was entered for the compound COc1ccc(C(=CC(=O)N2CCOCC2)c2ccc(Cl)cc2)cc1OC in this test?
Ans. active

Qu. Cool, now CCOP(=O)(SC(C)CC)N1CCSC1=O (centres undefined)
Ans. inactive

Qu. Cool, now CCOP(=S)(OCC)Oc1ccc2c(C)c(Cl)c(=O)oc2c1
Ans. inactive

Qu. Cool, now CCc1cnc(C2=NC(C)(C(C)C)C(=O)N2)c(C(=O)O)c1 (centres undefined)
Ans. inactive

Qu. Cool, now CC(Oc1cccc(Cl)c1)C(=O)O (centres undefined)
Ans. inactive

Qu. Cool, now COP(=O)(OC)OC(Br)C(Cl)(Cl)Br (centres undefined)
Ans. inactive

Qu. Cool, now CCc1cccc(CC)c1N(COC)C(=O)CCl
Ans. inactive

Qu. Cool, now C[N+]1(C)CCCCC1
Ans. inactive

Qu. Cool, now CCOP(=S)(Oc1cnc(C(C)(C)C)nc1)OC(C)C (centres undefined)
Ans. inactive

Qu. Cool, now CCCCOC(=O)c1ccccc1C(=O)O
Ans. inactive
